tested on: U-251; assay: Cytotoxicity against human U251 cells assessed as inhibition of cell proliferation by sulforhodamine B assay; assay type: functional, cell-based
pIC50: −log10 of the molar value.
Items are presented alongside their recorded pIC50.
measured-property: pIC50

1) CC(C)[C@]12O[C@H]1[C@@H]1O[C@@]13[C@@]1(C)CCC4=C(COC4=O)C1=C[C@@H]1O[C@@]13C2=O: 5.79
2) CC(C)[C@]12O[C@H]1[C@@H]1O[C@]13[C@]1(O[C@H]1C=C1C4=C(CC[C@@]13C)C(=O)OC4)[C@@H]2O: 6.14
3) CC(C)[C@]12O[C@H]1[C@@H]1O[C@]13[C@]1(O[C@H]1[C@H](O)[C@@]1(O)C4=C(CC[C@]31C)C(=O)OC4)[C@@H]2O: 5.80
4) CC(C)[C@]12O[C@H]1[C@@H]1O[C@@]13[C@@]1(C)CCC4=C(COC4=O)[C@]1(Br)C[C@@H]1O[C@@]13[C@]21CO1: 5.69
5) CC(C)[C@]12O[C@H]1[C@@H]1O[C@@]13[C@@]1(C)CCC4=C(COC4=O)[C@]1(O)C[C@@H]1O[C@@]13[C@]21CO1: 5.26

----------
Entries and their measured IC50 follow.
test system: U-251; test: Cytotoxicity against human U251 cells assessed as inhibition of cell proliferation by sulforhodamine B assay; type: functional, cell-based
measured-property: IC50 (nM)

1. CC(C)[C@]12O[C@H]1[C@@H]1O[C@@]13[C@@]1(C)CCC4=C(COC4=O)[C@@H]1C[C@@H]1O[C@@]13C2=O [TRIPTONIDE]: 31
2. CC(C)[C@]12O[C@H]1[C@@H]1O[C@@]13[C@@]1(C)CCC4=C(COC4=O)[C@]1(O)[C@@H](O)[C@@H]1O[C@@]13C2=O: 2970
3. CC(C)[C@]12O[C@H]1[C@@H]1O[C@@]13[C@@]1(C)CCC4=C(COC4=O)[C@]1(Cl)C[C@@H]1O[C@@]13[C@]21CO1: 925
4. CC(C)[C@]12O[C@H]1[C@@H]1O[C@@]13[C@@]1(C)CCC4=C(COC4=O)[C@]1(Br)C[C@@H]1O[C@@]13C2=O: 558
5. CC(C)[C@]12O[C@H]1[C@@H]1O[C@@]13[C@@]1(C)CCC4=C(COC4=O)[C@]1(Cl)C[C@@H]1O[C@@]13C2=O: 170
6. CC(C)[C@]12O[C@H]1[C@@H]1O[C@@]13[C@@]1(C)CCC4=C(COC4=O)[C@@]1(O)[C@@H](O)[C@@H]1O[C@@]13C2=O: 9860
7. CC(C)[C@]12O[C@H]1[C@@H]1O[C@@]13[C@@]1(C)CCC4=C(COC4=O)[C@]1(F)C[C@@H]1O[C@@]13C2=O: 429
8. CC(C)[C@]12O[C@H]1[C@@H]1O[C@]13[C@]1(O[C@H]1C[C@@]1(O)C4=C(CC[C@]31C)C(=O)OC4)[C@@H]2O: 488
9. CC(C)[C@]12O[C@H]1[C@@H]1O[C@@]13[C@@]1(C)CCC4=C(COC4=O)[C@@]14O[C@H]4[C@@H]1O[C@@]13C2=O: 197
10. CC(C)[C@]12O[C@H]1[C@@H]1O[C@]13[C@]1(O[C@H]1C[C@@]1(Br)C4=C(CC[C@]31C)C(=O)OC4)[C@@H]2O: 796
